Can you tell me percent of viable cells for the items I'm about to list?
tested on: human embryonic kidney 293 (HEK293) cells; assay: Toxicity of Nucleoside Triphosphates (NTPs), CYTO TOX-GLO assay; assay type: cell-based; details: human, 72 h, 21 nM
One number for each entry, in %.

>>> recordednumber("Nc1cc[nH]c(=O)n1")
91.80
>>> recordednumber("Nc1nc2nc[nH]c2c(=O)[nH]1")
92.55
>>> recordednumber("Cc1c[nH]c(=O)nc1N")
92.10
>>> recordednumber("O=c1cc[nH]c(=O)[nH]1")
94.53

Turning now to a further record.
Just so you know, measured percent of viable cells for `Nc1ncnc2nc[nH]c12` came out at 93.88

====

test system: human embryonic kidney 293 (HEK293) cells; test: Toxicity of Nucleoside Triphosphates (NTPs), CYTO TOX-GLO assay; type: cell-based; conditions: human, 4 h, 2.1 mM
Kindly state percent of viable cells for each of the entries shown.
Give bare numbers, in %.

Report percent of viable cells for every entry below.
1. Nc1nc2nc[nH]c2c(=O)[nH]1
2. Nc1cc[nH]c(=O)n1
3. Nc1ncnc2nc[nH]c12

### Response
[90.96, 90.51, 90.03]

Fill in percent of viable cells for each of the 2 compounds listed.
1. Cc1c[nH]c(=O)nc1N
2. O=c1cc[nH]c(=O)[nH]1

### Response
1: 92.01; 2: 90.97

====

System: peripheral blood mononuclear cells (PBMC)
Assay: In Vitro Screening in PBMC - G-CSF protein expression
Format: cell-based, human
Conditions: PBMC Donor 3; 500 ng mRNA
Text: The supernatant was harvested and stored frozen until analyzed by ELISA to determine the G-CSF protein expression, and the induction of the cytokines interferon-alpha (IFN-α) and tumor necrosis factor alpha (TNF-α).
What G-CSF Protein Expression was measured for each of the following?
One number for each entry, in pg/mL.

A selection of reference data follows.
>>> recordednumber("Cc1cn([C@@H]2O[C@H](CO)[C@@H](O)[C@H]2O)c(=O)[nH]c1=O")
345
>>> recordednumber("CNc1ncnc2c1ncn2[C@@H]1O[C@H](CO)[C@@H](O)[C@H]1O")
200
>>> recordednumber("O=c1ccn([C@@H]2O[C@H](CO)[C@@H](O)[C@H]2O)c(=S)[nH]1")
600

Please examine the following record next.
Fill in: peripheral blood mononuclear cells (PBMC) G-CSF Protein Expression for `CC(=O)Nc1ccn([C@@H]2O[C@H](CO)[C@@H](O)[C@H]2O)c(=O)n1` = 36

====

For each entry below, report its percent of viable cells value.
tested on: human embryonic kidney 293 (HEK293) cells; assay: Toxicity of Nucleoside Triphosphates (NTPs), CYTO TOX-GLO assay; assay type: cell-based; conditions: human, 48 h, 210 uM
Give bare numbers, in %.

Solved entries:
>>> recordednumber("Nc1nc2nc[nH]c2c(=O)[nH]1")
87.05
>>> recordednumber("Nc1ncnc2nc[nH]c12")
90.55
>>> recordednumber("Cc1c[nH]c(=O)nc1N")
85.94
>>> recordednumber("Nc1cc[nH]c(=O)n1")
87.81

Measured percent of viable cells of `O=c1cc[nH]c(=O)[nH]1` : 88.98

====

test system: Balb-C mice; assay: In Vivo Screening of Luciferase Modified mRNA (bioluminescence, total flux); conditions: fully modified luciferase mRNA in 1×PBS, subcutaneous, 42 to 103 ug, imaged 8 hours after dosing, total flux of entire mouse
Kindly supply the reported Luciferase expression (photon/second) values for the records listed here.
Numbers only, in photon/second.

Use the examples below as a reference point.
>>> recordednumber("CC(=O)Nc1ccn([C@@H]2O[C@H](CO)[C@@H](O)[C@H]2O)c(=O)n1")
"1.11E07"
>>> recordednumber("O=c1[nH]c(=O)n([C@@H]2O[C@H](CO)[C@@H](O)[C@H]2O)cc1Br")
"3.75E+07"
>>> recordednumber("Cc1cn([C@@H]2O[C@H](CO)[C@@H](O)[C@H]2O)c(=O)nc1N [5-Methylcytidine, reference compound]")
"1.94E+07"
>>> recordednumber("O=c1[nH]cc([C@@H]2O[C@H](CO)[C@@H](O)[C@H]2O)c(=O)[nH]1")
"1.36E+07"
>>> recordednumber("Cn1cc([C@@H]2O[C@H](CO)[C@@H](O)[C@H]2O)c(=O)[nH]c1=O")
"7.40E+07"

Switching to the query record.
get_value(item= `Cc1cn([C@@H]2O[C@H](CO)[C@@H](O)[C@H]2O)c(=O)[nH]c1=O` , readout=Luciferase expression (photon/second)) returns 7.42E+06
